System: canarygrass (Phalaris minor)
protocol: Test B postemergence plant response
Format: in vivo
measurement.parameters: 8 g ai/ha, postemergence; 0-100 scale
recorded.metric: Canarygrass plant response rating

# compound.smiles, assay.target, reported
records = [
    ("Cn1ncc(O)c(-n2nc(-c3ccc(Cl)cc3)cc2C2CC2)c1=O", "canarygrass (Phalaris minor)", 0),
    ("CCOC(=O)Oc1cnn(C)c(=O)c1-n1nc(-c2ccc(Cl)cc2)cc1C", "canarygrass (Phalaris minor)", 0),
    ("Cc1nn(C)c(=O)c(-n2nc(-c3ccc(Cl)cc3)cc2Cl)c1O", "canarygrass (Phalaris minor)", 0),
    ("CCc1cc(-c2ccc(Cl)cc2)nn1-c1c(O)cnn(C)c1=O", "canarygrass (Phalaris minor)", 10),
    ("CCc1cc(-c2ccc(Br)cc2)nn1-c1c(O)c(C)nn(C)c1=O", "canarygrass (Phalaris minor)", 80),
    ("CCCc1cc(-c2ccc(Cl)cc2)nn1-c1c(O)cnn(C)c1=O", "canarygrass (Phalaris minor)", 30),
    ("Cc1cc(-c2ccc(Cl)cc2)nn1-c1c(OS(=O)(=O)c2ccccc2)cnn(C)c1=O", "canarygrass (Phalaris minor)", 0),
]

---

Test system: green foxtail (Setaria viridis)
protocol: Test B pre-/postemergence plant response
Type: in vivo
measurement.parameters: Postemergence, 31 g ai/ha; scale 0 to 100, 0 no effect, 100 complete control

# molecule, Plant response rating, Foxtail, Green
rows = [
    ("CCCc1cc(-c2ccc(Cl)cc2)nn1-c1c(O)cnn(C)c1=O [Compound 43]", 100),
    ("Cc1cc(-c2ccc(Cl)cc2)nn1-c1c(OC(=O)c2cccc(Cl)c2)cnn(C)c1=O [Compound 32]", 90),
    ("Cc1nn(C)c(=O)c(-n2nc(-c3ccc(Cl)cc3)cc2C)c1O [Compound 15]", 95),
    ("Cc1cc(-c2ccc(C(F)(F)F)c(F)c2)nn1-c1c(O)c(C(F)(F)F)nn(C)c1=O [Compound 44]", 95),
]

---

Let's look at some compounds and their measured Plant response rating, Cupgrass, Woolly.
Test system: woolly cupgrass (Eriochloa villosa)
protocol: Test B pre-/postemergence plant response
Assay type: in vivo
measurement.parameters: Postemergence, 31 g ai/ha; scale 0 to 100
recorded.metric: Plant response rating, Cupgrass, Woolly

# compound.smiles, reported
rows = [
    ("Cc1nn(C)c(=O)c(-n2nc(-c3ccc(Cl)cc3)cc2Cl)c1O", 65),
    ("CCc1cc(-c2ccc(Br)cc2)nn1-c1c(O)c(C)nn(C)c1=O", 90),
    ("Cn1ncc(O)c(-n2nc(-c3ccc(Cl)cc3)cc2C2CC2)c1=O", 100),
    ("Cc1cc(-c2ccc(Cl)cc2)nn1-c1c(OC(=O)Oc2ccccc2)cnn(C)c1=O", 98),
    ("CCc1cc(-c2ccc(Br)cc2)nn1-c1c(O)cnn(CC(F)(F)F)c1=O", 100),
]

---

Let's look at some compounds and their measured Plant response rating, Windgrass.
System: windgrass (Apera spica-venti)
protocol: Test C pre-/postemergence plant response
Type: in vivo
measurement.parameters: Preemergence, 31 g ai/ha; scale 0 to 100 (0 no effect, 100 complete control)
recorded.metric: Plant response rating, Windgrass

# compound.smiles, recorded.metric, reported
rows = [
    ("Cc1cc(-c2ccc(Cl)cc2)nn1-c1c(OS(=O)(=O)c2ccc(Cl)s2)cnn(C)c1=O", "Plant response rating, Windgrass", 0),
    ("CCCc1cc(-c2ccc(Cl)cc2)nn1-c1c(O)cnn(C)c1=O", "Plant response rating, Windgrass", 80),
    ("Cc1cc(-c2ccc(C(F)(F)F)c(F)c2)nn1-c1c(O)c(C(F)(F)F)nn(C)c1=O", "Plant response rating, Windgrass", 100),
    ("Cc1cc(-c2ccc(Cl)cc2)nn1-c1c(OS(=O)(=O)c2cccc3ccccc23)cnn(C)c1=O", "Plant response rating, Windgrass", 30),
    ("Cc1cc(-c2ccc(Cl)cc2)nn1-c1c(OC(=O)CC(C)C)cnn(C)c1=O", "Plant response rating, Windgrass", 60),
]

---

Test system: blackgrass (Alopecurus myosuroides)
protocol: Test B pre-/postemergence plant response
Format: in vivo
measurement.parameters: Preemergence, 62 g ai/ha; scale 0 to 100
recorded.metric: Plant response rating, Blackgrass

# compound, reported
records = [
    ("Cc1cc(-c2ccc(Cl)cc2)nn1-c1c(OS(=O)(=O)C(C)C)cnn(C)c1=O [Compound 50]", 95),
    ("CCCc1cc(-c2ccc(Cl)cc2)nn1-c1c(O)cnn(C)c1=O [Compound 43]", 100),
    ("Cn1ncc(O)c(-n2nc(-c3ccc(Cl)cc3)cc2C2CC2)c1=O [Compound 45]", 100),
    ("Cc1cc(-c2ccc(Br)cc2)nn1-c1c(OC(=O)C2CC2)cnn(C)c1=O [Compound 5]", 100),
    ("Cc1cc(-c2ccc(Cl)cc2)nn1-c1c(OS(=O)(=O)c2ccccc2)cnn(C)c1=O [Compound 35]", 100),
    ("Cc1cc(-c2ccc(Cl)cc2)nn1-c1c(OC(=O)c2cccc(Cl)c2)cnn(C)c1=O [Compound 32]", 98),
    ("CCc1cc(-c2ccc(C(F)(F)F)cc2)nn1-c1c(OC(=O)OC(C)C)cnn(C)c1=O [Compound 12]", 100),
]

---

Test system: giant foxtail (Setaria faberii)
protocol: Test B pre-/postemergence plant response
Format: in vivo
measurement.parameters: 8 g ai/ha, postemergence; 0-100 scale
recorded.metric: Foxtail, Giant plant response rating

# compound.smiles, assay.target, recorded.metric, reported
rows = [
    ("Cn1ncc(O)c(-n2nc(-c3ccc(Cl)cc3)cc2C2CC2)c1=O", "giant foxtail (Setaria faberii)", "Foxtail, Giant plant response rating", 90),
    ("CCCc1cc(-c2ccc(C(F)(F)F)cc2)nn1-c1c(O)cnn(C)c1=O", "giant foxtail (Setaria faberii)", "Foxtail, Giant plant response rating", 95),
    ("CCOC(=O)Oc1cnn(C)c(=O)c1-n1nc(-c2ccc(Cl)cc2)cc1C", "giant foxtail (Setaria faberii)", "Foxtail, Giant plant response rating", 85),
    ("Cc1cc(-c2ccc(Cl)cc2)nn1-c1c(OC(=O)CC(C)C)cnn(C)c1=O", "giant foxtail (Setaria faberii)", "Foxtail, Giant plant response rating", 30),
    ("Cc1cc(-c2ccc(Cl)cc2)nn1-c1c(OS(=O)(=O)c2ccccc2)cnn(C)c1=O", "giant foxtail (Setaria faberii)", "Foxtail, Giant plant response rating", 90),
    ("Cc1cc(-c2ccc(Cl)cc2)nn1-c1c(OC(=O)c2ccccc2Cl)cnn(C)c1=O", "giant foxtail (Setaria faberii)", "Foxtail, Giant plant response rating", 0),
    ("CCc1c(C)c(-c2ccc(Br)cc2)nn1-c1c(O)cnn(C)c1=O", "giant foxtail (Setaria faberii)", "Foxtail, Giant plant response rating", 80),
    ("CCCc1cc(-c2ccc(Cl)cc2)nn1-c1c(O)cnn(C)c1=O", "giant foxtail (Setaria faberii)", "Foxtail, Giant plant response rating", 85),
    ("COc1nn(C)c(=O)c(-n2nc(-c3ccc(Br)cc3)cc2C)c1O", "giant foxtail (Setaria faberii)", "Foxtail, Giant plant response rating", 95),
]

---

Test system: barnyardgrass (Echinochloa crus-galli)
protocol: Test B flooded paddy test plant response
Format: in vivo
measurement.parameters: Flood, 31 g ai/ha; scale 0 to 100
Hi, to clarify the labels: Satisfied covers Plant response rating, Barnyardgrass from 10 upward, Not satisfied covers anything below 10.

# compound.smiles, classification
rows = [
    ("Cc1nn(C)c(=O)c(-n2nc(-c3ccc(Cl)cc3)cc2C)c1O", "Not satisfied"),
    ("CCCC(=O)Oc1cnn(C)c(=O)c1-n1nc(-c2ccc(Cl)cc2)cc1C", "Not satisfied"),
    ("CCCc1cc(-c2ccc(Cl)cc2)nn1-c1c(O)cnn(C)c1=O", "Satisfied"),
    ("Cc1cc(-c2ccc(OC(F)(F)F)cc2)nn1-c1c(O)cnn(C)c1=O", "Not satisfied"),
    ("Cc1cc(-c2ccc(C(F)(F)F)c(F)c2)nn1-c1c(O)c(C(F)(F)F)nn(C)c1=O", "Not satisfied"),
    ("Cc1cc(-c2ccc(Cl)cc2)nn1-c1c(OC(=O)CC(C)C)cnn(C)c1=O", "Satisfied"),
    ("Cc1cc(-c2ccc(Cl)cc2)nn1-c1c(OS(=O)(=O)c2ccccc2)cnn(C)c1=O", "Not satisfied"),
    ("CCc1cc(-c2ccc(C(F)(F)F)cc2)nn1-c1c(O)c(C)nn(C)c1=O", "Satisfied"),
    ("Cc1cc(-c2ccc(Cl)cc2)nn1-c1c(OS(=O)(=O)C(C)C)cnn(C)c1=O", "Not satisfied"),
    ("CCc1cc(-c2ccc(C(F)(F)F)cc2)nn1-c1c(O)c(OC)nn(C)c1=O", "Not satisfied"),
    ("CCc1cc(-c2ccc(Cl)cc2)nn1-c1c(O)cnn(C)c1=O", "Satisfied"),
    ("Cc1cc(-c2ccc(Cl)cc2)nn1-c1c(OC(=O)c2ccccc2Cl)cnn(C)c1=O", "Satisfied"),
    ("Cc1cc(-c2ccc(Cl)cc2)nn1-c1c(OS(=O)(=O)C2CC2)cnn(C)c1=O", "Not satisfied"),
]
